targetOrTestSystem: S. aureus GyrB ATPase (Staphylococcus aureus, UniProt P0A0K8)
Sequence (P0AES4 whole entry): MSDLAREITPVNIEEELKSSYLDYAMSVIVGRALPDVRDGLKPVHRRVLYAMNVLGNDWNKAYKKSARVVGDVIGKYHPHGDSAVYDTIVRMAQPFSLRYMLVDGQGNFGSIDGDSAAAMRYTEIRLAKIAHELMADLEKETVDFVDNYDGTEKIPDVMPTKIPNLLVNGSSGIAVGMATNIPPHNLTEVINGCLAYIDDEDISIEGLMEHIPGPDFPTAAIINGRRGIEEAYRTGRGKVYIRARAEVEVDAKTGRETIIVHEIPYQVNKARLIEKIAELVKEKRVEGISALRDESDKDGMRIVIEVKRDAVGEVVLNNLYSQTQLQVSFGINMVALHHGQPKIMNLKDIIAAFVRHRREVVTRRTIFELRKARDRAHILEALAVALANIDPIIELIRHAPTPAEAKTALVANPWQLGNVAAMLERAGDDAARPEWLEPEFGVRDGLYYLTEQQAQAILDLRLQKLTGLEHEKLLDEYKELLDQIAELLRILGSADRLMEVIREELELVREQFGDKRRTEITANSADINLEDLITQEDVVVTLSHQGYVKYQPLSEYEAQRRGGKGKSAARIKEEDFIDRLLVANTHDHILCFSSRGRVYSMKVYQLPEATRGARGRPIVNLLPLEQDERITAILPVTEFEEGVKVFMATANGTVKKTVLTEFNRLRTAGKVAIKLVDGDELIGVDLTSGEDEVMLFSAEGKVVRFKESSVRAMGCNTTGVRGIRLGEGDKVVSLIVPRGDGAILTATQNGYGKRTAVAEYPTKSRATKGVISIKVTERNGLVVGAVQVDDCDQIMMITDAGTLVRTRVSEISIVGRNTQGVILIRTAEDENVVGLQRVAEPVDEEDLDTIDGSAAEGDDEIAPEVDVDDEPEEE
Sequence (P0A0K8 whole entry): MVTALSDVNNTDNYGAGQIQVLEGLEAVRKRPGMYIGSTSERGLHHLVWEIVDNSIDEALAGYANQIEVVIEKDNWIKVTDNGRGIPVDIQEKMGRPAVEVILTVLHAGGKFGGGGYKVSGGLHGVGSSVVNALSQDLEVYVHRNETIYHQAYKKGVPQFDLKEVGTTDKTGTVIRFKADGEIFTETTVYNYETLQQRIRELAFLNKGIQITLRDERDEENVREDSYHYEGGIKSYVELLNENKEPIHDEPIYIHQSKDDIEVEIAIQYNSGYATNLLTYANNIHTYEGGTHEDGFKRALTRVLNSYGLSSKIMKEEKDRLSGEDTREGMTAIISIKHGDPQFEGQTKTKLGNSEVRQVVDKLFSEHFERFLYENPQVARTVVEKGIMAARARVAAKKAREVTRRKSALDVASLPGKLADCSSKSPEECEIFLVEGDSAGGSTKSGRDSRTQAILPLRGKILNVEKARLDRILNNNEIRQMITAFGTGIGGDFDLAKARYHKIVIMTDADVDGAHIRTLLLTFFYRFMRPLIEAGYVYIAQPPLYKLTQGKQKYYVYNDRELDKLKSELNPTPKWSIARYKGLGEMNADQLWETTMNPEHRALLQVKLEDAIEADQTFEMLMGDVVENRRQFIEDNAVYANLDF
methodSummary: S. aureus GyrB ATPase inhibition (ammonium molybdate/malachite green phosphate detection)
Type: biochemical
details: compound at 1 μM; inhibition of S. aureus GyrB ATPase; read-out: Percent Inhibition (1 μM)
Structures can show the parent of a compound that is named as a salt.
endpointName: inhibition at 1 µM (%)

INSERT INTO assay_data (compound, numericreadout) VALUES
  ('CCNC(=O)Nc1cc(-c2nc(-c3ccccc3)cs2)c(-c2cc3c(=O)c(C(=O)O)cn(CCN(C)C)c3cc2OCCN(C)C)cn1 [Example 24]', 107),
  ('CCNC(=O)Nc1cc(-c2nc(C(F)(F)F)cs2)c(-c2cc3c(=O)c(C(=O)O)cn(CCN4CCOCC4)c3cc2F)cn1 [Example 50]', 106),
  ('CCNC(=O)Nc1cc(-c2nc(C(F)(F)F)cs2)c(-c2ccc3c(c2)c(=O)c(C(=O)OCCOC(=O)C(C)(C)C)cn3C(COC)COC)cn1 [Example 44]', 98),
  ('CCNC(=O)Nc1cc(-c2nc(C(F)(F)F)cs2)c(-c2cc3c(=O)c(C(=O)O)cn(C4CC4)c3cc2Cl)cn1 [Example 54]', 126),
  ('CCNC(=O)Nc1cc(-c2nc(C(F)(F)F)cs2)c(-c2ccc3c(c2)c(=O)c(C(=O)OCCOC(C)=O)cn3C(COC)COC)cn1 [Example 41]', 107),
  ('CCNC(=O)Nc1cc(-c2nc(C(F)(F)F)cs2)c(-c2cc3c(=O)c(C(=O)O)cn([C@H](CO)C(C)C)c3cc2OC)cn1 [Example 28]', 104),
  ('CCNC(=O)Nc1cc(-c2nc(C(F)(F)F)cs2)c(-c2ccc3c(=O)c(C(=O)NCCCOP(=O)(O)O)cn(Cc4noc(C)n4)c3c2)cn1 [Example 13]', 99),
  ('CCNC(=O)Nc1cc(-c2nc(C(F)(F)F)cs2)c(-c2ccc3c(c2)c(=O)c(C(=O)OCc2oc(=O)oc2C)cn3C(COC)COC)cn1 [Example 40]', 97),
  ('CCNC(=O)Nc1cc(-c2nc(C(F)(F)F)cs2)c(-c2ccc3c(=O)c(C(=O)NCCCOP(=O)(O)O)cn(CCC(C)C)c3c2)cn1 [Example 16]', 100),
  ('CCNC(=O)Nc1cc(-c2nc(C(F)(F)F)cs2)c(-c2ccc3c(c2)c(=O)c(C(=O)N(C)C)cn3C[C@H]2CCCNC2)cn1 [Example 33]', 104),
  ('CCNC(=O)Nc1cc(-c2nc(C(F)(F)F)cs2)c(-c2ccc3c(c2)c(=O)c(C(=O)OCCOP(=O)(O)O)cn3C(COC)COC)cn1 [Example 19]', 110),
  ('CCNC(=O)Nc1cc(-c2nc(C(F)(F)F)cs2)c(-c2ccc3c(c2)c(=O)c(C(=O)O)cn3C[C@@H]2CCN(CCN3CCN(C)CC3)C2)cn1 [Example 36]', 112),
  ('CCNC(=O)Nc1cc(-c2nc(C(F)(F)F)cs2)c(-c2ccc3c(c2)c(=O)c(C(=O)OCOC(C)=O)cn3C(COC)COC)cn1 [Example 38]', 105),
  ('CCNC(=O)Nc1cc(-c2nc(C(F)(F)F)cs2)c(-c2cc3c(=O)c(C(=O)O)cn([C@H](CO)C(C)(C)C)c3cc2F)cn1 [Example 27]', 125),
  ('CCNC(=O)Nc1cc(-c2nc(-c3ccccc3)cs2)c(-c2cc3c(=O)c(C(=O)O)cn(CCN(C)C)c3cc2OCCN(CC)CC)cn1 [Example 46]', 108),
  ('CCNC(=O)Nc1cc(-c2nc(C(F)(F)F)cs2)c(-c2ccc3c(=O)c(C(=O)NCCCOP(=O)(O)O)cn(CC)c3c2)cn1 [Example 14]', 97),
  ('CCNC(=O)Nc1cc(-c2nc(C(F)(F)F)cs2)c(-c2cc3c(=O)c(C(=O)O)cn(CCN(C)C)c3cc2F)cn1 [Example 20]', 106),
  ('CCNC(=O)Nc1cc(-c2nc(C(F)(F)F)cs2)c(-c2cc3c(=O)c(C(=O)O)cn(C[C@@H]4CCCN4CC)c3cc2OCCN(C)C)cn1 [Example 25]', 98),
  ('CCNC(=O)Nc1cc(-c2nc(C(F)(F)F)cs2)c(-c2ccc3c(c2)c(=O)c(C(=O)N(C)C)cn3CC2CN3CCN2CC3)cn1 (stereo not shown) [Example 31]', 114),
  ('CCNC(=O)Nc1cc(-c2nc(C(F)(F)F)cs2)c(-c2ccc3c(c2)c(=O)c(C(=O)O)cn3C[C@H]2CCN(CCN3CCN(C)CC3)C2)cn1 [Example 37]', 100),
  ('CCNC(=O)Nc1cc(-c2nc(C(F)(F)F)cs2)c(-c2ccc3c(c2)c(=O)c(C(=O)OCCOP(=O)(O)O)cn3C2CC2)cn1 [Example 18, hydrochloride]', 104),
  ('CCNC(=O)Nc1cc(-c2nc(C(F)(F)F)cs2)c(-c2ccc3c(c2)c(=O)c(C(=O)O)cn3[C@H](COP(=O)(O)O)C(C)(C)C)cn1 [Example 3]', 108);

Origin of measurements: patent US20100317624A1
